Molecular target: T1, GST-Dvl2PDZ fusion protein (human, UniProt O14641 248-364)
T1 construct: range 248-364; Made with the pGEX E. coli expression system; also called GST-PDZ fusion protein; not shown: glutathione S-transferase (GST) encoded by plasmid pGEX
T1 sequence (looked up): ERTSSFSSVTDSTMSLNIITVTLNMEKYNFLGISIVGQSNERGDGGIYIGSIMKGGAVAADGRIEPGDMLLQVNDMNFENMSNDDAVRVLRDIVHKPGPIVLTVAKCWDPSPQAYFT
Experiment: phage display selection on GST-Dvl2PDZ
PROPERTY NAME: binding result

Use these answered entries as a reference point.
In [3]: df
Out[3]:
                         binder  obs_value
0  ELRWHDYGWIGGG [SEQ ID NO 57]      binds
1     TVRWVFFGFF [SEQ ID NO 33]      binds
2    ERWIDYGYIL [SEQ ID NO 152]      binds
3  WTIRDYGWLDGGG [SEQ ID NO 79]      binds
4   VPTWIDGPCVD [SEQ ID NO 158]      binds

Check the records and state binding result for SIIYYGWLDGGG [SEQ ID NO 99]
binds

Check the records and state binding result for DTAYKDYGWIGGG [SEQ ID NO 61]
binds

Check the records and state binding result for QQLLWSDIP [SEQ ID NO 120]
binds

Reference for the values: patent US20100136580A1
